Tested on: LP-1 cell line (FGF-1/Heparin induced pERK)
Experiment summary: Cell-based pERK ELISA, LP-1 cells
Condition context: Homo sapiens, LP-1, read-out: LP-1 pERK ELISA (μM)
Where a name gives a salt, the structure may show the parent alone.
Measured quantity: IC50 (µM)
Numbers only, in µM.

List reported IC50 for each of these compounds:
1. Cc1cnnc(-c2ccn3c(-c4cccc(NC(=O)NCC(F)(F)F)c4)cnc3c2)c1
2. O=C(NCC(F)(F)F)Nc1cccc(-c2cnc3cc(-c4nccc(C(F)(F)F)n4)ccn23)c1 [Example 46, hydrochloride]
3. O=C(NCC(F)(F)F)Nc1cccc(-c2cnc3cc(-c4cnc(N5CC(F)(F)C5)nc4)ccn23)c1 [Example 87, trifluoroacetate]
4. O=C(NCC(F)(F)F)Nc1cccc(-c2cnc3cc(-c4nnc(NC5CC5)s4)ccn23)c1
5. O=C(NCC(F)(F)F)Nc1cncc(-c2cnc3cc(-c4cnn(C5CCNCC5)c4)ccn23)c1

0.034
0.18
0.072
0.075
3.3

###

So I've got a bunch of compounds here, and I need their pIC50 values.
Tested on: Ba/F3-TEL-FGFR3 cells
Experiment summary: Ba/F3-TEL-FGFR3 cell proliferation assay (Alamar Blue)
Format: cell-based
Condition context: 72 hours, Alamar Blue; read-out: BaF3-TEL-FGFR3 prolif
Structures can show the parent of a compound that is named as a salt.
Give bare numbers, as −log10 of the molar value.

CCNC(=O)Nc1cccc(-c2cnc3cc(-c4ncc(OC)cn4)ccn23)c1    7.05
CCCCCOC(=O)Nc1nc(-c2ccn3c(-c4cccc(NC(=O)NCC(F)(F)F)c4)cnc3c2)ncc1F    5.80
O=C(NCC(F)(F)F)Nc1cccc(-c2cnc3cc(-c4ccc(N5CCNCC5)nn4)ccn23)c1 [Example 23, trifluoroacetate]    6.38
CNC(=O)C(C)(C)n1cc(-c2ccn3c(-c4cccc(NC(=O)NCC(F)(F)F)c4)cnc3c2)cn1    6.59
CCN1CCC(n2cc(-c3ccn4c(-c5cccc(NC(=O)NCC(F)(F)F)c5)cnc4c3)cn2)C1 (stereo not shown)    7.35
CC(C)(CO)n1cc(-c2ccn3c(-c4cccc(NC(=O)NCC(F)(F)F)c4)cnc3c2)cn1    6.52

API: the following record is the query input.
Summary: `CNc1cc(-c2ccn3c(-c4cccc(NC(=O)NCC(F)(F)F)c4)cnc3c2)ncn1` , Ba/F3-TEL-FGFR3 cells, pIC50 = 7.12

###

Measured target: VEGFR2 (Homo sapiens (Human))
Sequence (P35968 20-1356): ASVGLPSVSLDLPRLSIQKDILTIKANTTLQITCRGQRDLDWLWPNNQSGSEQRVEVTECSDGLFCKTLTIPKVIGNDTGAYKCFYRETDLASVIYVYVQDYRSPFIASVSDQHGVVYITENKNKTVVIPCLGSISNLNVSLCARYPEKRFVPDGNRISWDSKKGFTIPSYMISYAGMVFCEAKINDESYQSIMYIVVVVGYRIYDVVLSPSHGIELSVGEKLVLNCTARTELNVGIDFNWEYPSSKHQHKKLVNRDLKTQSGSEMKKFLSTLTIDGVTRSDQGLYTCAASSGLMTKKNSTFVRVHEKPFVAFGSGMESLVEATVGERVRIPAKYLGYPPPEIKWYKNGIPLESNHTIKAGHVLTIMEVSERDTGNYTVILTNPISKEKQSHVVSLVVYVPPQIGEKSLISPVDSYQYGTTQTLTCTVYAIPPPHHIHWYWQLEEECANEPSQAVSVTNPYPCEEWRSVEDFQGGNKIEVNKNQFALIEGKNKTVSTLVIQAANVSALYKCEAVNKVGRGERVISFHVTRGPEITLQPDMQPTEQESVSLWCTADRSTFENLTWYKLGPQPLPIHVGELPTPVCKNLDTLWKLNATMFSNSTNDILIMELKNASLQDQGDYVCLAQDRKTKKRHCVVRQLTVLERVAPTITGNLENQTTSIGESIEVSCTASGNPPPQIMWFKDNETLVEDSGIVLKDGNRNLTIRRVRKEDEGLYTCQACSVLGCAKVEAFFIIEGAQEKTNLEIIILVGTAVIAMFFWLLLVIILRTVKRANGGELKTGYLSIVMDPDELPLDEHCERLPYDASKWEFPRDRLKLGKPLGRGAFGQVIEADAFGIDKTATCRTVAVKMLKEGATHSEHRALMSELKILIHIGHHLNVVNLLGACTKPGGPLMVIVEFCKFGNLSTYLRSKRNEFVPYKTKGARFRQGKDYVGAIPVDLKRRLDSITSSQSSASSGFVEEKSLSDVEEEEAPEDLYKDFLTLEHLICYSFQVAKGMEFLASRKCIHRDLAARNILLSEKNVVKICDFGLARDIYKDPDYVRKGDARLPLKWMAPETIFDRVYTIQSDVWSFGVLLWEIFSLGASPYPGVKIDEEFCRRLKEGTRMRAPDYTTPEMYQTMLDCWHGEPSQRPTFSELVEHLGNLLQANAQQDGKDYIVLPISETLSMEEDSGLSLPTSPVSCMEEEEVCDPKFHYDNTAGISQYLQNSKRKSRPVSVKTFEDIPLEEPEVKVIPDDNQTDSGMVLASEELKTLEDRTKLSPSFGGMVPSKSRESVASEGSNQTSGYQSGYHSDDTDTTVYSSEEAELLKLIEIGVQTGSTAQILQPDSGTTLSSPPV
Experiment summary: VEGFR2 in vitro kinase inhibitory activity assay (TRF, Flt3 substrate)
Format: biochemical
Condition context: 1 h; at 1 μM; read-out: VEGFR2 % I
Measured quantity: inhibition at 1 µM (%)
One number for each entry, in %.

List reported inhibition at 1 µM for each of these compounds:
1. NCc1cc(NC(=O)NCC(F)(F)F)cc(-c2cnc3cc(-c4ccnc(C(F)(F)F)n4)ccn23)c1
2. Nc1nc(-c2ccn3c(-c4cc(NC(=O)NCC(F)(F)F)cc(C(F)(F)F)c4)cnc3c2)ncc1F
3. Cc1cc(NC(=O)NCC(F)(F)F)cc(-c2cnc3cc(-c4ccnc(C(F)(F)F)n4)ccn23)c1
4. CC(C)COC(=O)Nc1nc(-c2ccn3c(-c4cccc(NC(=O)NCC(F)(F)F)c4)cnc3c2)ncc1F

1. 55
2. 37
3. 60
4. 40

List reported inhibition at 1 µM for each of these compounds:
1. Nc1cc(Cl)cnc1-c1ccn2c(-c3cccc(NC(=O)NCC(F)(F)F)c3)cnc2c1
2. CCNC(=O)Nc1cccc(-c2cnc3cc(-c4ccnc(C(F)(F)F)n4)ccn23)c1

51
49
